Test system: NCI-1703
Assay: cell viability of NCI-1703 cells, 1 and 10 uM of each erlotinib derivative, and IC50
Assay type: cell-based
Settings: Homo sapiens; 10 uM

# TEST SMILES, viability at 10 µM, %
rows = [
    ("FC(F)(F)c1cc(Nc2nc3ccccc3nc2Cl)ccc1Cl", 64.8),
    ("FC(F)(F)c1cc(Nc2nc3ccccc3nc2Nc2ccc(Cl)c(C(F)(F)F)c2)ccc1Cl", 28.8),
    ("c1ccc(CNc2nc3ccccc3nc2NCc2ccccc2)cc1", 96.7),
    ("FS(F)(F)(F)(F)c1ccc(Nc2nc3ccccc3nc2Cl)cc1", 85.8),
    ("O=[N+]([O-])c1ccc2nc(Nc3ccc(F)cc3)c(Nc3ccc(F)cc3)nc2c1", 21),
    ("Clc1cc(Cl)cc(Nc2nc3ccccc3nc2Cl)c1", 73.2),
    ("Cc1ccc(F)c(Nc2nc3ccccc3nc2Nc2cc(C)ccc2F)c1", 98.9),
    ("FC(F)(F)Oc1ccc(Nc2nc3ccccc3nc2Cl)cc1", 52.3),
    ("CCc1cccc(Nc2nc3ccccc3nc2Nc2cccc(CC)c2)c1", 26.4),
]

---

Test: BA (%), Table 5
Details: in vivo
Recorded BA (%) by entry
PARAMETER MEASURED: BA (%)

# COMPOUND, PARAMETER MEASURED, ENDPOINT VALUE
measured = [
    ("C#Cc1cccc(Nc2nc3ccccc3nc2Nc2cccc(C#C)c2)c1 [TD52]", "BA (%)", "87%"),
    ("C#Cc1cccc(Nc2nc3cc([N+](=O)[O-])ccc3nc2Nc2ccc(O)cc2)c1 [TD619]", "BA (%)", "62%"),
    ("C#Cc1cccc(Nc2nc3ccc([N+](=O)[O-])cc3nc2Nc2cccc(C#C)c2)c1 [TD604]", "BA (%)", "57%"),
    ("Cc1ccc(Nc2nc3ccccc3nc2Nc2ccc(C)c(O)c2)cc1O [TD66]", "BA (%)", "22%"),
]

---

Listed compounds paired with reported viability at 1 µM
Test system: H358
Assay: cell viability of H358 cells, 1 and 10 uM
Format: cell-based
Conditions: Homo sapiens, NCI-H358; 1 uM
PARAMETER MEASURED: viability at 1 µM (%)

# TEST SMILES, ENDPOINT VALUE
rows = [
    ("FC(F)(F)c1cc(Nc2nc3ccccc3nc2Cl)ccc1Cl", 114),
    ("Clc1cc(Cl)cc(Nc2nc3ccccc3nc2Cl)c1", 98.7),
    ("O=[N+]([O-])c1ccc2nc(Nc3cccc(O)c3)c(Nc3cccc(O)c3)nc2c1", 69.9),
    ("FS(F)(F)(F)(F)c1ccc(Nc2nc3ccccc3nc2Nc2ccc(S(F)(F)(F)(F)F)cc2)cc1", 22.4),
    ("C#Cc1cccc(Nc2nc3ccccc3nc2Nc2cccc(C#C)c2)c1", 99.8),
    ("FC(F)(F)c1cccc(Nc2nc3ccccc3nc2Nc2cccc(C(F)(F)F)c2)c1", 55.3),
    ("O=[N+]([O-])c1ccc2nc(Nc3ccc(Cl)c(F)c3)c(Nc3ccc(Cl)c(F)c3)nc2c1", 11.9),
    ("c1ccc(Nc2nc3ccccc3nc2Nc2ccccc2)cc1", 110),
    ("O=[N+]([O-])c1ccc2nc(Nc3ccc(F)cc3)c(Nc3ccc(F)cc3)nc2c1", 24.2),
    ("N#CCc1ccc(Nc2nc3ccccc3nc2Nc2ccc(CC#N)cc2)cc1", 121),
    ("FC(F)(F)Oc1ccc(Nc2nc3ccccc3nc2Nc2ccc(OC(F)(F)F)cc2)cc1", 27.1),
    ("COc1ccc(Nc2nc3ccc([N+](=O)[O-])cc3nc2Nc2ccc(OC)cc2)cc1", 58.3),
    ("COc1ccc(Nc2nc3ccc([N+](=O)[O-])cc3nc2Nc2ccc(C(F)(F)F)cc2)cc1", 24.3),
    ("Nc1ccc2nc(Nc3ccc(C(F)(F)F)cc3)c(Nc3ccc(C(F)(F)F)cc3)nc2c1", 116),
    ("COc1cccc(Nc2nc3ccc([N+](=O)[O-])cc3nc2Nc2cccc(OC)c2)c1", 110),
    ("COc1ccc(Nc2nc3ccc([N+](=O)[O-])cc3nc2Nc2ccc(F)cc2)cc1", 40.4),
    ("C#Cc1cccc(Nc2nc3cc([N+](=O)[O-])ccc3nc2Nc2ccc(O)cc2C)c1", 92.6),
    ("C#Cc1cccc(Nc2nc3cc([N+](=O)[O-])ccc3nc2Nc2ccc(O)cc2)c1", 87.5),
    ("COC(=O)c1ccc2nc(Nc3ccc(OC(F)(F)F)cc3)c(Nc3ccc(OC(F)(F)F)cc3)nc2c1", 13),
    ("Cc1ccc(Nc2nc3ccccc3nc2Nc2ccc(C)c(O)c2)cc1O", 96.6),
    ("FC(F)(F)Oc1ccc(Nc2nc3ccccc3nc2Cl)cc1", 119),
    ("Cc1cc(Nc2nc3ccc([N+](=O)[O-])cc3nc2Nc2ccc(O)cc2)n[nH]1", 140),
    ("CCc1cccc(Nc2nc3ccccc3nc2Nc2cccc(CC)c2)c1", 117),
]
